ASSAY REMARKS: In vivo brain permeability and retention, LC-MS/MS of brain and plasma
Parameters: species or system C57BL/6J WT mice
MEASUREMENT SETUP: C57BL/6J, mouse, brain, ip; 2 months old WT mice, 50 mg/kg i.p., 4 h after injection, mesylate salt; read-out: Brain concentration
ENDPOINT LABEL: concentration at 4 h (ng/g)
One number for each entry, in ng/g.

Documented concentration at 4 h of `Cc1ccccc1Nc1nccc(-c2cccc(NC(=O)c3ccc(CCN(C)C)cc3)c2)n1` : 92

---

ASSAY REMARKS: In vivo brain permeability and retention, LC-MS/MS of brain and plasma
Parameters: species or system C57BL/6J WT mice
MEASUREMENT SETUP: C57BL/6J, mouse, plasma, ip; 2 months old WT mice, 50 mg/kg i.p., 4 h after injection, mesylate salt; read-out: Plasma concentration
Protocol: All procedures involving animals were approved by The Rockefeller University Institutional Animal Care and Use Committee and were in accordance with the National Institutes of Health guidelines. […] Mice were euthanized 4 h post drug administration and brain hemispheres and plasma were harvested and collected in pre-weighted tubes and snap-frozen in liquid nitrogen. […] Concentration of the drug and metabolites in brain and in plasma was determined by LC-MS/MS analysis. […]
ENDPOINT LABEL: concentration at 4 h (ng/mL)
One number for each entry, in ng/mL.

Recorded concentration at 4 h (compound `Cc1ccccc1Nc1nccc(-c2cccc(NC(=O)c3ccc(CCN(C)C)cc3)c2)n1` ): 550
